Biological target: DNA-PK (Homo sapiens (Human), UniProt P78527)
Assay: DNA-PK biochemical assay (Reaction Biology HotSpot kinase assay, 10 μM ATP)
Conditions: class symbol
pIC50: −log10 of the molar value.
Reported pIC50 values for the following compounds.

# count of solved cases: 5
{"columns": ["Compound", "Measured target", "pIC50"],
 "data": [
  ["COC12CCC(n3c(=O)n(C)c4cnc(Nc5cc(F)c(-c6cnn(C)c6)cc5C)nc43)(C1)C2 [Compound 39]", "DNA-PK (Homo sapiens (Human), UniProt P78527)", "7.00 to 8.00"],
  ["Cc1cc2c(cc1Nc1ncc3c(n1)N(C14CC(F)(C1)C4)CC(=O)N3C)OCO2 [Compound 56]", "DNA-PK (Homo sapiens (Human), UniProt P78527)", "7.00 to 8.00"],
  ["Cc1cc2c(cc1Nc1ncc3c(n1)n(C14CC(C#N)(C1)C4)c(=O)n3C)OCO2 [Compound 17]", "DNA-PK (Homo sapiens (Human), UniProt P78527)", "8.00 to 9.00"],
  ["Cc1cc2ncnn2cc1Nc1ncc2c(n1)n(C13CC(C(F)(F)F)(C1)C3)c(=O)n2C [Compound 18]", "DNA-PK (Homo sapiens (Human), UniProt P78527)", "8.00 to 9.00"],
  ["Cc1cc2c(cc1Nc1ncc3c(n1)n(C14CCC(O)(CC1)C4)c(=S)n3C)OCO2 [Compound 32]", "DNA-PK (Homo sapiens (Human), UniProt P78527)", "8.00 to 9.00"]
]}

Reported pIC50 of COC12CCC(n3c(=O)n(C)c4cnc(Nc5cc(F)c(C(N)=O)cc5C)nc43)(C1)C2 [Compound 40] : 8.00 to 9.00

Field pIC50 (entry Cc1cc2c(cc1Nc1ncc3c(n1)n(C14CC(F)(C1)C4)c(=O)n3C)OCCO2 [Compound 16] ) reads 7.00 to 8.00

pIC50 reported for this compound COC12CCC(n3c(=O)n(C)c4cnc(Nc5cc6c(cc5C)OCO6)nc43)(C1)C2 [Compound 28] : 8.00 to 9.00

# compound Cc1cc2c(cc1Nc1ncc3c(n1)n(C14CC(F)(C1)C4)c(=O)n3C)OCO2 [Compound 13] ; its pIC50 = 8.00 to 9.00

Entry under test: COC12CCC(N3CC(=O)N(C)c4cnc(Nc5cc6c(cc5C)OCO6)nc43)(CC1)C2 [Compound 63] . Its pIC50 was 8.00 to 9.00

Lab note: Cc1cc2ncnn2cc1Nc1ncc2c(n1)N(C13CC(F)(C1)C3)CC(=O)N2C [Compound 54] gave pIC50 of 8.00 to 9.00

Field pIC50 (entry Cc1cc2ncccc2cc1Nc1ncc2c(n1)N(C13CC(F)(C1)C3)CC(=O)N2C [Compound 57] ) reads 8.00 to 9.00

Form: compound = Cc1cc2ncnn2cc1Nc1ncc2c(n1)n(C13CC(F)(C1)C3)c(=S)n2C [Compound 34] ; pIC50 = 7.00 to 8.00

====

Biological target: ATM (Homo sapiens (Human))
Sequence (Q13315 whole entry): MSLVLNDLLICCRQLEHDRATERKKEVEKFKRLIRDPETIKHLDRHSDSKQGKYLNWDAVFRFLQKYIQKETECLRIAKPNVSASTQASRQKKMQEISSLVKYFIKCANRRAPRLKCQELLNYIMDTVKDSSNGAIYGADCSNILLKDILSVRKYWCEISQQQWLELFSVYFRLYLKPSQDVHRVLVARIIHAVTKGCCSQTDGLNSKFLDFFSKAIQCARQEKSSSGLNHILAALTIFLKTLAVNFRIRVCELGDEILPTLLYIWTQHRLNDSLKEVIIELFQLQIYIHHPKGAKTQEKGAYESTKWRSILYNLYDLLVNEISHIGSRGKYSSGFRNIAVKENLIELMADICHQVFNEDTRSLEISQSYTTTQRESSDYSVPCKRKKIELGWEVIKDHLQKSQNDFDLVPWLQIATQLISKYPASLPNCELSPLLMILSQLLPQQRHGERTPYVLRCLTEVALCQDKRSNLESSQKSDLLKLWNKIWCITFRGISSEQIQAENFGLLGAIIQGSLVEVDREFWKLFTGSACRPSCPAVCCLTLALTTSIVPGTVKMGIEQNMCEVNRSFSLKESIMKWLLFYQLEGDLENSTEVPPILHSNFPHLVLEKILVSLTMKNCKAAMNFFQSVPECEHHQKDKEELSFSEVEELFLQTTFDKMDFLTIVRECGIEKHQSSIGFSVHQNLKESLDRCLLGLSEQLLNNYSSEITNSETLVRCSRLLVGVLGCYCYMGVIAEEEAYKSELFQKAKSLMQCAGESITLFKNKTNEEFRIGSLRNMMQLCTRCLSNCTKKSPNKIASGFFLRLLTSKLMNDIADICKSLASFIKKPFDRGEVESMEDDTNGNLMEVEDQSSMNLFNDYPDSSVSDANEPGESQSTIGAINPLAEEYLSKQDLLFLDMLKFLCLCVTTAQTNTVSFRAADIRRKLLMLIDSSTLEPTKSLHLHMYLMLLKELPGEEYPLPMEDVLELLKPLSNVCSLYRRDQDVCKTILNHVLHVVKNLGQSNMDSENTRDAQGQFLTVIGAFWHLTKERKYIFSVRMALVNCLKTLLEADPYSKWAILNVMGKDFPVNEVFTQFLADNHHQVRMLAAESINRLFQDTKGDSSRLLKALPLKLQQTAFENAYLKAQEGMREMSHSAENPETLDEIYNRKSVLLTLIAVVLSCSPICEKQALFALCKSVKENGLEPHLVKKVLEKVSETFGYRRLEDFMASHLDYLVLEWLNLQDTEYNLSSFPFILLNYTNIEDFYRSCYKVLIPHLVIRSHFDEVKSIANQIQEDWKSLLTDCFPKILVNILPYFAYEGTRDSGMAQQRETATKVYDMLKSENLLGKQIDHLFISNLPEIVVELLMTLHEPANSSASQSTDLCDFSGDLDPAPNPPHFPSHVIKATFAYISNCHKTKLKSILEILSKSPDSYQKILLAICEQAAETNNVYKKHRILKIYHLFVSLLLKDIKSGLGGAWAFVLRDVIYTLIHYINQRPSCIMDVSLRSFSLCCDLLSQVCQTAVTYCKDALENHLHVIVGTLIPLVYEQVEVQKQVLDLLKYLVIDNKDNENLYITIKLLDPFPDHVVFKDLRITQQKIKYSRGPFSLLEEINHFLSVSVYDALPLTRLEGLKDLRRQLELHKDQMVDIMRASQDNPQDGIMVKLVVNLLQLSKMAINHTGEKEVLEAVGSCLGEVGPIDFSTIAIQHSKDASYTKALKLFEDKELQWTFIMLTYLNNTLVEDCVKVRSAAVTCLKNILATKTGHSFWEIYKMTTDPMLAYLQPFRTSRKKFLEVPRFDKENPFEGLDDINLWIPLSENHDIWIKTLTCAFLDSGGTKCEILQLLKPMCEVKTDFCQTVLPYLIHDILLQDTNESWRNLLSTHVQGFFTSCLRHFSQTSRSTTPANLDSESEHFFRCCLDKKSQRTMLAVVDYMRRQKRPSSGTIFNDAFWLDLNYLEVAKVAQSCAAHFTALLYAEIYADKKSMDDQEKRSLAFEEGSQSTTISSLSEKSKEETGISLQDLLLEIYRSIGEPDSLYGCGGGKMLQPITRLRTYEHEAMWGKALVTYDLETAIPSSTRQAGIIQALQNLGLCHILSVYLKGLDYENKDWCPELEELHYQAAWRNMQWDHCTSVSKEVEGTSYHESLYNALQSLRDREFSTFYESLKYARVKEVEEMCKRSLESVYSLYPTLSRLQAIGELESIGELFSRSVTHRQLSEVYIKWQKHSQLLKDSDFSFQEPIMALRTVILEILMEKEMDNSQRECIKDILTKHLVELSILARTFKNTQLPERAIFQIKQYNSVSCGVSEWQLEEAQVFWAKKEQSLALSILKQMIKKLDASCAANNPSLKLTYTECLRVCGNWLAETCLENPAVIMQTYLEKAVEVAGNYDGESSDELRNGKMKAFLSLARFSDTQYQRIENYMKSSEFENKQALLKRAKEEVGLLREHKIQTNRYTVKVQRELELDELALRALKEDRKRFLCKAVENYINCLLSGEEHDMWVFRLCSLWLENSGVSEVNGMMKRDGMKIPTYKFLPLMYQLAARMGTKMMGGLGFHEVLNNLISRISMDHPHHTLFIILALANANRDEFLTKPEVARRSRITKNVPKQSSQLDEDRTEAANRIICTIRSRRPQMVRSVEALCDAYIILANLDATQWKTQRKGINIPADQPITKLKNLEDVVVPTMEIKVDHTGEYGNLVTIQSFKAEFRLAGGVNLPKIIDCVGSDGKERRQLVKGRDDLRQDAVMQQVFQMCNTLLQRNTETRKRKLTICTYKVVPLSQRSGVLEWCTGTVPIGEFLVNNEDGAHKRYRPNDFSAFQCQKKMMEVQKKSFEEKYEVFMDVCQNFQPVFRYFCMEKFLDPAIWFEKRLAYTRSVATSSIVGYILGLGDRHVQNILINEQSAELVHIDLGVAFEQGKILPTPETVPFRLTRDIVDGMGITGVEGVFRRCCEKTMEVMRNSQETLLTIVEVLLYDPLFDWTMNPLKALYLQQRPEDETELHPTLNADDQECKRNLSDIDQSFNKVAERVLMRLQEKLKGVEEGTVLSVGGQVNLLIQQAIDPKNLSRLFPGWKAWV
Experiment: ATM biochemical assay (Reaction Biology HTRF kinase assay, 10 μM ATP)
Settings: class symbol
pIC50: −log10 of the molar value.
Endpoint label: pIC50

Some molecules with known pIC50 results, for comparison:
{"columns": ["Molecule", "pIC50"],
 "data": [
  ["Cc1cc2nsnc2cc1Nc1ncc2c(n1)N(C13CCC(O)(CC1)C3)C(=O)C21CC1 [Compound 69]", "7.00 to 8.00"],
  ["Cc1cc2nsnc2cc1Nc1ncc2c(n1)n(C13CCC(O)(CC1)C3)c(=O)n2C [Compound 3]", "8.00 to 9.00"],
  ["Cc1cc2nsnc2cc1Nc1ncc2c(n1)N(C13CCC(O)(CC1)C3)CC(=O)N2C [Compound 55]", "8.00 to 9.00"],
  ["Cc1cc2nnccc2cc1Nc1ncc2c(n1)N(C13CCC(O)(CC1)C3)CC(=O)N2C [Compound 61]", "8.00 to 9.00"],
  ["COC12CCC(n3c(=O)n(C)c4cnc(Nc5cn6ncnc6cc5C)nc43)(C1)C2 [Compound 29]", "6.00 to 7.00"]
]}

Value of measured pIC50 for the entry Cc1cc2c(cc1Nc1ncc3c(C)nn(C45CC(C4)C5)c3n1)OCO2 [Compound 48] : 6.00 to 7.00

# molecule Cc1cc2ncccc2cc1Nc1ncc2c(n1)N(C13CCC(O)(CC1)C3)CC(=O)N2C [Compound 53] ; its pIC50 = 7.00 to 8.00

What the record says about Cc1cc2ncnn2cc1Nc1ncc2c(n1)n(C13CCC(O)(CC1)C3)c(=S)n2C [Compound 31] : pIC50 is 6.00 to 7.00

Record Cc1cc2ncccc2cc1Nc1ncc2c(n1)N(C13CC(F)(C1)C3)CC(=O)N2C [Compound 57] , field pIC50: 7.00 to 8.00

The molecule listed as COC12CCC(n3c(=O)n(C)c4cnc(Nc5cc6nsnc6cc5C)nc43)(C1)C2 [Compound 30] has a reported pIC50 of 6.00 to 7.00

====

Target: PI3Kδ (His-PIK3CD/PIK3R1, p110 delta/p85 alpha) (Homo sapiens (Human), UniProt O00329)
Sequence (O00329 whole entry, species assumed): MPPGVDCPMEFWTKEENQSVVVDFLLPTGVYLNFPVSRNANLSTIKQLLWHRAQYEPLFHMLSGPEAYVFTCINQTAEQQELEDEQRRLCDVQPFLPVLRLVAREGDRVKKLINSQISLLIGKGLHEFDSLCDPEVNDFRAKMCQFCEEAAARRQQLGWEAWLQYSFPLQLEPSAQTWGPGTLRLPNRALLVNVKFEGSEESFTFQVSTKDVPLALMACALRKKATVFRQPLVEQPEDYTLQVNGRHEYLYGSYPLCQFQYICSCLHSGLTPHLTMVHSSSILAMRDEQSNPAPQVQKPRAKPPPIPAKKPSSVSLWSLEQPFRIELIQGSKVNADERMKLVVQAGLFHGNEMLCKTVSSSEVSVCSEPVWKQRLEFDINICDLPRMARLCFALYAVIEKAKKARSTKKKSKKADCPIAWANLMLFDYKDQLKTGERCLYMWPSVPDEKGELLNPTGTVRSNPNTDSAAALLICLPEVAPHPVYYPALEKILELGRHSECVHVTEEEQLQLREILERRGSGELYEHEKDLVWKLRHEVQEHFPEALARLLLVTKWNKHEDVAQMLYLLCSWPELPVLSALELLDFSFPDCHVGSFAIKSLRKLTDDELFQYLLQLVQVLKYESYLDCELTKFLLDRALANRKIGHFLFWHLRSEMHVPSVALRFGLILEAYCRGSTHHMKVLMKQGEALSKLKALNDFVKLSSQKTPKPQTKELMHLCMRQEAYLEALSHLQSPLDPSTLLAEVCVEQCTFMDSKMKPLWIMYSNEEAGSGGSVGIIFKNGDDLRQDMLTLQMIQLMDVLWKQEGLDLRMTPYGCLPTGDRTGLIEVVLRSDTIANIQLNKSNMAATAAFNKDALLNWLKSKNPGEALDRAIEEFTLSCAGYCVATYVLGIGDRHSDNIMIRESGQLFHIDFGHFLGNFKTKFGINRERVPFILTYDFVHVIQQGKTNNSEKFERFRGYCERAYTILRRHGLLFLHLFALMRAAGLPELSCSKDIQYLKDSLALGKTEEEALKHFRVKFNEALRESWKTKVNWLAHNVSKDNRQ
Sequence (P27986 whole entry partner, species assumed): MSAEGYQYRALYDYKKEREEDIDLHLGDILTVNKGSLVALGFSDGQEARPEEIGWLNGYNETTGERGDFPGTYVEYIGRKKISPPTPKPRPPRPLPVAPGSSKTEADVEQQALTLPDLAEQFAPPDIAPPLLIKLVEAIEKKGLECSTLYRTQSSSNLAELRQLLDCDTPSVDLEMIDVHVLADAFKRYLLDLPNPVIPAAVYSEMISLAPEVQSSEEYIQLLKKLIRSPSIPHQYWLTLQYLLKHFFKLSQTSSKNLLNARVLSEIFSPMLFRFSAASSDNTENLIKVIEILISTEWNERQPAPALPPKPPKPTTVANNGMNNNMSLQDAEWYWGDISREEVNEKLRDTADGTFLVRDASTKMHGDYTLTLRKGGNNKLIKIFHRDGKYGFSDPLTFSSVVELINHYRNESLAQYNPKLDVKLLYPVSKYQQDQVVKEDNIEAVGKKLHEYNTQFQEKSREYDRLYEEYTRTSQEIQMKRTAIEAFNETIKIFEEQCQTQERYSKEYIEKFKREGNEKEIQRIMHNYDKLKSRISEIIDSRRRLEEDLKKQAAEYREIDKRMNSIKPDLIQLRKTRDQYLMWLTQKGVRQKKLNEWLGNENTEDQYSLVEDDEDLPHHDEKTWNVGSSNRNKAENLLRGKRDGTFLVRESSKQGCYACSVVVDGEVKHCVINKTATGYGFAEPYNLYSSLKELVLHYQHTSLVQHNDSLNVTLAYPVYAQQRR
Assay: PI3Kδ biochemical assay (HTRF/FRET probe)
Assay type: binding
Settings: class symbol
Reported IC50 by item:

Consider the reported IC50 for these compounds:
{"columns": ["Compound", "IC50"],
 "data": [
  ["Cc1cc2ncnn2cc1Nc1ncc2c(n1)n(C13CCC(O)(CC1)C3)c(=S)n2C", "10 to 100 nM"],
  ["Cc1cc2c(cc1Nc1ncc3c(n1)n(C14CC(C(F)(F)F)(C1)C4)c(=O)n3C)OCO2", "≥ 1000 nM"],
  ["[2H]C([2H])([2H])n1c(=O)n(C23CCC(O)(CC2)C3)c2nc(Nc3cn4ncnc4cc3C)ncc21", "100 to 1000 nM"],
  ["COCC12CC(n3c(=O)n(C)c4cnc(Nc5cc6c(cc5C)OCO6)nc43)(C1)C2", "≥ 1000 nM"],
  ["Cc1cc2ncnn2cc1Nc1ncc2c(n1)n(C13CC(F)(C1)C3)c(=O)n2C", "≥ 1000 nM"],
  ["Cc1cc2c(cc1Nc1ncc3c(n1)N(C14CC(F)(C1)C4)C(=O)C31CC1)OCO2", "≥ 1000 nM"],
  ["Cc1cc2c(cc1Nc1ncc3c(n1)n([C@H]1C[C@@H]4CC[C@H]1C4)c(=O)n3C)OCO2", "≥ 1000 nM"],
  ["Cc1cc2c(cc1Nc1ncc3c(n1)n(C14CC(C#N)(C1)C4)c(=O)n3C)OCO2", "≥ 1000 nM"],
  ["COC12CCC(n3c(=O)n(C)c4cnc(Nc5cc6c(cc5C)OCO6)nc43)(CC1)C2", "≥ 1000 nM"],
  ["COC12CCC(N3CC(=O)N(C)c4cnc(Nc5cc6c(cc5C)OCO6)nc43)(CC1)C2", "100 to 1000 nM"]
]}

response.value for Cc1cc2nnccc2cc1Nc1ncc2c(n1)N(C13CCC(O)(CC1)C3)CC(=O)N2C (field: IC50) = 100 to 1000 nM

For Cc1cc2c(cc1Nc1ncc3c(C)nn(C45CC(C4)C5)c3n1)OCO2 the compound record lists IC50 as ≥ 1000 nM

Just so you know, measured IC50 for Cc1cc2c(cc1Nc1ncc3c(n1)n(C14CC(F)(C1)C4)c(=O)n3C)OCO2 came out at ≥ 1000 nM

Kindly note the recorded IC50 for COC12CCC(n3c(=O)n(C)c4cnc(Nc5cc(F)c(C(N)=O)cc5C)nc43)(C1)C2 , which is ≥ 1000 nM

// IC50 lookup, compound = COC12CCC(n3c(=O)n(C)c4cnc(Nc5cc6nsnc6cc5C)nc43)(CC1)C2 , result: 100 to 1000 nM

// recorded IC50 for Cc1cc2ncnn2cc1Nc1ncc2c(n1)N(C13CCC(O)(CC1)C3)CC(=O)N2C : 100 to 1000 nM

Reported IC50 of Cc1cc2c(cc1Nc1ncc3c(n1)N(C14CCC(O)(CC1)C4)C(=O)C31CC1)OCO2 : 100 to 1000 nM

// sample COC12CCC(n3c(=O)n(C)c4cnc(Nc5cc6c(cc5C)OCO6)nc43)(CC1)CC2 , its IC50 was ≥ 1000 nM

The measured IC50 associated with Cc1cc2ncnn2cc1Nc1ncc2c(n1)n(C1CC3CCC1CC3)c(=O)n2C (stereo not drawn) reads ≥ 1000 nM

According to the records, this compound COC12CCC(N3CC(=O)N(C)c4cnc(Nc5cn6ncnc6cc5C)nc43)(CC1)C2 displays IC50 of ≥ 1000 nM

The compound COC12CCC(n3c(=O)n(C)c4cnc(Nc5cc6nsnc6cc5C)nc43)(C1)C2 showed IC50 equal to ≥ 1000 nM

So, Cc1cc2c(cc1Nc1ncc3c(n1)n(C1CC4CCC1CC4)c(=O)n3C)OCO2 (stereo not drawn) ? Its IC50 was ≥ 1000 nM

// field: IC50; key: Cc1cc(-c2cnn(C)c2)ncc1Nc1ncc2c(n1)N(C13CC(F)(C1)C3)C(=O)C21CC1 ; value = ≥ 1000 nM

IC50 reading for COCC12CC(n3c(=O)n(C)c4cnc(Nc5cn6ncnc6cc5C)nc43)(C1)C2 : ≥ 1000 nM
